experiment: qHTS assay for small molecule agonists of the antioxidant response element (ARE) signaling pathway measured by Nrf2-dependant transcriptional activity (AID 720636); conditions: ARE-luc HepG2, Nrf2 luciferase reporter, 16 h; series mostly up to 92.4 µM;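 for activation: HepG2 cells with an ARE-driven luciferase reporter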
Inconclusive results are not listed. Activity calls are given as the source filed them. Calls come from the whole dose curve; as a rule, active = well fitted activation curve with a large enough effect in the repeat runs; inconclusive = weak or mixed curves; inactive = flat fitted curve, though single readings scatter.
Classes used: active, inactive

N#CCCC#N: inactive
O=NN1CCCCC1: inactive
O=[N+]([O-])c1ccccc1O: inactive
CC(C)(C)C(O)(CCc1ccc(Cl)cc1)Cn1cncn1 (centres undefined): inactive
Cl/C=C\Cl: inactive
Cc1ccc(OP(=O)(Oc2ccc(C)cc2)Oc2ccc(C)cc2)cc1: inactive
OCCOCCO: inactive
Cc1coc2c1CCC(C)C2 (centres undefined): inactive
Cl/C=C/CCl: inactive
CC(=O)CCC(C)=O: inactive
C/C=C/CC#N: inactive
O=Cc1ccc2c(c1)OCO2: inactive
CC(C)[C@]12CC(=O)[C@H](C)[C@H]1C2: inactive
C[N+](=O)[O-]: inactive
Clc1ccc(Cl)c(Cl)c1: inactive
CC(=O)[O-].CC(=O)[O-].CC(=O)[O-].[Cr+3]: inactive
FC(Cl)(Cl)Cl: inactive
CCCN(CCC)c1c([N+](=O)[O-])cc(C(F)(F)F)cc1[N+](=O)[O-]: inactive
CCOP(=S)(OCC)Oc1nc(Cl)c(Cl)cc1Cl: inactive
CCCCCCCCCCCOC(=O)c1ccccc1C(=O)OCCCCCCCCCCC: inactive
O=C(O)c1cc(Cl)ccc1Cl: inactive
Nc1cc(Cl)ccc1Cl: inactive
Cc1ccc(N=C=O)cc1N=C=O: inactive
Nc1ccc(Cl)c(Cl)c1: inactive
C=CC(=O)OC: inactive
Nc1ccc(Cc2ccc(N)c(Cl)c2)cc1Cl: inactive
CN1CSC(=S)N(C)C1: inactive
O=C(O)CCl: inactive
COc1c(C(C)(C)C)cc([N+](=O)[O-])c(C)c1[N+](=O)[O-]: inactive
CCNCC: inactive
Nc1cccc(Cl)c1: inactive
Nc1ncc([N+](=O)[O-])s1: inactive
Clc1cccc(Cl)c1: inactive
ClC(Cl)C(Cl)Cl: inactive
C=C(Cl)CSC(=S)N(CC)CC: inactive
CCN(CC)CCO: inactive
CCOP(=S)(OCC)SCCSCC: inactive
CN=C=O: inactive
CCCCC(CC)COC(=O)c1ccc(C(=O)OCC(CC)CCCC)c(C(=O)OCC(CC)CCCC)c1 (centres undefined): inactive
Oc1c(Cl)cccc1Cl: inactive
O=S(=O)(Cl)c1ccccc1: inactive
CC(C)C#N: inactive
C=COC(C)=O: inactive
O=[N+]([O-])c1cc(Cl)c(Cl)cc1Cl: inactive
ClCC(Cl)CCl: inactive
CN(C)C(=O)Cl: inactive
BrC(Br)Br: inactive
CC(=O)NNc1ccccc1: inactive
BrCC(Br)(Br)Br: inactive
Cc1ccc(N)cc1N: inactive
CCSC(=O)N1CCCCCC1: inactive
Nc1cc(Cl)ccc1O: active
Oc1c(Cl)c(Cl)cc(Cl)c1Cl: inactive
Oc1ccc(Cl)c(Cl)c1: inactive
CCCCOCC1CO1 (centres undefined): inactive
c1ccc(P(c2ccccc2)c2ccccc2)cc1: inactive
ClCC(Cl)Cl: inactive
Clc1cc(Cl)c(Cl)c(Cl)c1: inactive
N#CCc1ccccc1: inactive
C1CC2OC2CC1C1CO1 (centres undefined): inactive
Clc1ccc(C(Cl)(Cl)Cl)cc1Cl: inactive
CN(C)N=O: inactive
ClCCOCCCl: inactive
CC(Cl)CCl (centres undefined): inactive
CC(C)(C)c1ccccc1O: inactive
ClCCCCl: inactive
C=CCOCC1CO1 (centres undefined): inactive
CCOC(=O)CC(SP(=O)(OC)OC)C(=O)OCC (centres undefined): inactive
CC(C)(COCC1CO1)COCC1CO1 (centres undefined): inactive

---

target: Thyroid hormone receptor beta (Homo sapiens); test: qHTS assay for small molecule agonists of thyroid hormone receptor beta signaling (AID 588545); conditions: TR-UAS-bla GripTite HEK 293, beta-lactamase ratio, agonist mode, 18 h; series mostly up to 76.7 µM
Inconclusive results are not listed. Active and inactive are the calls of the source. Calls come from the whole dose curve.
measureName: outcome

CCOP(=S)(OCC)SCCSCC: inactive
CCN(N=O)C(N)=O: inactive
O=Cc1ccc(Cl)cc1Cl: inactive
ClC(Cl)C(Cl)Cl: inactive
C=CC(=O)OCCN(C)C: inactive
C=CCBr: inactive
C=C(C)CCl: inactive
Cc1ccc(N=C=O)cc1N=C=O: inactive
S=C1NCCN1: inactive
CCCN(CCC)c1c([N+](=O)[O-])cc(C(F)(F)F)cc1[N+](=O)[O-]: inactive
Nc1c(Br)cc([N+](=O)[O-])cc1[N+](=O)[O-]: inactive
CC(=O)CCC(C)=O: inactive
CCCCCCCCCCCOC(=O)c1ccccc1C(=O)OCCCCCCCCCCC: inactive
O=C(O)c1cc(Cl)ccc1Cl: inactive
CC(C)C#N: inactive
ClCCBr: inactive
Nc1ccc([N+](=O)[O-])cc1N: inactive
Nc1ccc([N+](=O)[O-])cc1[N+](=O)[O-]: inactive
N#CCCC#N: inactive
CCCCCCCCCCCCCl: inactive
O=NN1CCCCC1: inactive
CN=C=O: inactive
CSSC: inactive
Nc1c(Cl)cc([N+](=O)[O-])cc1Cl: inactive
ClCC(Br)CBr (stereo not given): inactive
Cc1ccc(OP(=O)(Oc2ccc(C)cc2)Oc2ccc(C)cc2)cc1: inactive
CC(C)[N+](=O)[O-]: inactive
Nc1ccc(Cl)c(Cl)c1: inactive
BrC(Br)Br: inactive
Clc1ccccc1: inactive
CC(C)(C)C(O)(CCc1ccc(Cl)cc1)Cn1cncn1 (stereo not given): inactive
Brc1cccc(-c2ccccc2)c1: inactive
O=C(Cl)c1ccccc1F: inactive
Clc1cc(Cl)c(Cl)c(Cl)c1: inactive
Oc1cccc(Cl)c1Cl: inactive
Cl/C=C/CCl: inactive
O=[N+]([O-])c1ccc2c3c(cccc13)CC2: inactive
[O-][Cl+]O: inactive
Cc1ccc(N)cc1Cl: inactive
Cc1cc(Cl)ccc1O: inactive
BrCC(Br)C1CCC(Br)C(Br)C1 (stereo not given): inactive
CC1CC(=O)O1 (stereo not given): inactive
CN(C)N=O: inactive
C=C(Cl)CCl: inactive
Cc1cc(-c2cc(C)c(N)c(C)c2)cc(C)c1N: inactive
O=C(O)c1cccc(Cl)c1: inactive
Clc1ccc(C(c2ccccc2Cl)C(Cl)(Cl)Cl)cc1 (stereo not given): inactive
CC(C)CC(C)N (stereo not given): inactive
COC(C)(C)C: inactive
c1ccc(NNc2ccccc2)cc1: inactive
N#CC(Br)Br: inactive
Clc1cccc(Cl)c1Cl: inactive
Cc1ccc([N+](=O)[O-])cc1: inactive
CC(=O)NNc1ccccc1: inactive
CCCCOCC1CO1 (stereo not given): inactive
O=c1ccc(=O)[nH][nH]1: inactive
Oc1ccc(Cl)c(Cl)c1Cl: inactive
O=[N+]([O-])c1ccc(Cl)c(Cl)c1Cl: inactive
CCCCOC(C)=O: inactive
COC(=O)Nc1cccc(OC(=O)Nc2cccc(C)c2)c1: inactive
C=CC#N: inactive
Cc1cc(N=Nc2ccccc2C)ccc1N: inactive
CC(C)(Cl)[N+](=O)[O-]: inactive
C=C(Cl)CSC(=S)N(CC)CC: inactive
C=CC(=O)OCC(CC)CCCC (stereo not given): inactive
COc1cc(-c2ccc(N)c(OC)c2)ccc1N: inactive
C=COC(C)=O: inactive
ClCc1ccccn1: inactive
C=CC(=O)OCC(C)C: inactive
Clc1cccc(Cl)c1: inactive

---

test system: HIV-1 nucleocapsid protein NCp7 (binding to TG oligonucleotide); experiment: HIV Nucleocapsid (AID 346); details: HIV-1 NC / fluorescein-TGTGTGTG probe, fluorescence polarization;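 note: potency is the fitted concentration of half-maximal effect; potency is for inhibitors that block NC binding and lower polarization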
Activity calls are given as the source filed them. How the calls were made is not given here.
We begin with a simple list: items and their reported Potency.
measureName: Potency

CN1CCN(c2nc(-c3ccccc3C(F)(F)F)nc3ccccc23)CC1: > 20 µM (inactive)
COc1ccccc1CN1CCCC2(CCN(C(C)=O)CC2)C1: > 20 µM (inactive)
CN(C)c1ncc2nc(-c3cc(F)cc(F)c3)c(=O)n(Cc3cccs3)c2n1: > 4 µM (inactive)
c1cn(-c2ccnc(-c3ccc4c(c3)OCO4)n2)cn1: > 20 µM (inactive)
COCCn1c(=O)c(CCc2ccccc2)nc2cnc(N3CCNCC3)nc21: > 20 µM (inactive)
Cc1nc2cnc(Nc3ccccc3)nc2n(CCc2ccccc2)c1=O: > 20 µM (inactive)
COc1ccc(Oc2ncc3nc(-c4ccc(F)cc4)c(=O)n(C)c3n2)cc1: > 20 µM (inactive)
CN(Cc1ccco1)c1ncncc1-c1ccoc1: > 20 µM (inactive)
O=c1c(-c2ccc(F)cc2)nc2cnc(N3CCNCC3)nc2n1Cc1ccc(F)cc1: > 20 µM (inactive)
CCNc1ncc2ncc(=O)n(C[C@H]3CCCO3)c2n1: > 20 µM (inactive)
c1cncc(CNc2nc(-c3ccc4c(c3)OCO4)nc3ccccc23)c1: > 20 µM (inactive)
